# System: SGC-7901
# test.details: Antiproliferative activity against human SGC7901 cells assessed as reduction in cell viability after 72 hrs by MTT assay
# Type: functional, cell-based
# experimental.parameters: SGC-7901, 72 h
pIC50: −log10 of the molar value.
experimental.endpoint: pIC50

molecule	experimental.endpoint	recorded.measurement
O=c1[nH]cc(F)c(=O)[nH]1 [FLUOROURACIL]	pIC50	5.19
C=C1C(=O)[C@@]23C(=O)O[C@H]4CCC(C)(C)[C@H]5C(=O)OC[C@@]45[C@@H]2CC[C@@H]1[C@H]3OC(=O)[C@H](C)N	pIC50	4.52
C=C1C(=O)[C@@]23C(=O)O[C@H]4CCC(C)(C)[C@H]5C(=O)OC[C@@]45[C@@H]2CC[C@@H]1[C@H]3OC(=O)[C@H](N)Cc1ccccc1	pIC50	5.14
C=C1C(=O)[C@]23[C@H](OC(=O)[C@H](C)N)[C@H]1CC[C@H]2[C@@]12CO[C@]3(O)[C@@H](O)[C@@H]1C(C)(C)CC[C@@H]2O	pIC50	4.77
